So I've got a bunch of compounds here, and I need their NADPH fluorescence slope values.
targetEntity: Voltage-gated potassium channel subunit beta-2 (Rattus norvegicus)
protocolDetails: enhancers of rat Kvbeta2 NADPH turnover – biochemical, NADPH fluorescence, primary screen (AID 623);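 also: fluorescence intensity change per second fitted from 20 to 320 s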
reportedConditions: Recombinant KvBeta, NADPH fluorescence decrease slope, 10 min; at 10 µM; hits give low values
# output: bare number, no unit

Notebook: pull reported NADPH fluorescence slope for Voltage-gated potassium channel subunit beta-2 (Rattus norvegicus), entry CCCCC(CC)CNC(=O)C1CCCN(S(=O)(=O)c2cnc[nH]2)C1 (configuration not stated)
-1.6e-05

Next: O=C(Nc1ccccc1C(=O)N1CCOCC1)C1CCC(=O)N1C1CCCC1 (configuration not stated)
-4.5e-05

Next: CN(C)CCCn1c(N)c(C#N)c2nc(C#N)c(C#N)nc21
-1.8e-05

Next: Cn1c(C(=O)NCC2CCCO2)cc2c(=O)n(C)c3ccccc3c21 (configuration not stated)
-3.1e-05

Next: CCOC(=O)CN1CC23C=CC(O2)C(C(=O)NC2CCCC2)C3C1=O (configuration not stated)
-2.3e-05

Next: CC(=O)c1cccc(S(=O)(=O)NCC(c2ccco2)N2CCCCC2)c1 (configuration not stated)
-1.6e-05

Next: NCCN1CCN(CCN)CC1
-1.1e-05

Next: c1ccc(Oc2ccc(-n3cnnn3)cc2)cc1
9.8e-07

Next: CCS(=O)(=O)N1CCCC(C(=O)NCCc2ccc(OC)c(OC)c2)C1 (configuration not stated)
4.5e-06

Next: O=C1N(c2ccccc2)C2CS(=O)(=O)CC2N1c1ccc(Br)cc1 (configuration not stated)
-1.5e-05

Next: O=C(O)C1CC=CCC1C(=O)NCc1ccccc1 (configuration not stated)
3.8e-06

Next: CCOC(=O)N1CCN(C(=O)c2csc3c2CCCCC3)CC1
1.7e-05

* * *

So I've got a bunch of molecules here, and I need their inhibition values.
protocolDetails: inhibitors of TNFa-induced NFkB p65 translocation, primary screen, imaging, HUVEC, MLSMR starter and 10KST1 sets (AID 438);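 also: compound added about 3h40 before a 20 min TNFalpha stimulation; signal is the nuclear over cytoplasmic p65 intensity ratio per well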
reportedConditions: HUVEC TNFa-induced p65 nuclear translocation; at 2 µM, hits give high values, 0% TNFa-plus-vehicle, 100% no-TNFa wells
Active and inactive are the calls of the source.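 The calls were made as follows: active = inhibition above 20% together with a positive visual image hit; inconclusive = visual image hit but inhibition not above 20%; inactive = no visual image hit.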

inhibition lookup needed for CN(C)c1ccc(/C(=N\O)c2ccccc2)cc1 , thanks.
1.2% (inactive)

Next: CCOc1ccc(NCc2nnc(SCC(=O)Nc3cc(C)on3)n2-c2ccccc2OC)cc1
-9.3% (inactive)

Next: CN(C)CCCNC(=O)c1ccc(CN(c2ccccc2)S(C)(=O)=O)cc1
1% (inactive)

Next: N#Cc1c(/N=C/c2cccs2)sc2c1CCCCC2
-14.8% (inactive)

Next: CC(=O)c1coc2ccc(OCC(=O)O)cc12
-11.2% (inactive)

Next: O=c1c2cc(Cl)ccc2[nH]c(=S)n1Cc1ccco1
5.3% (inactive)

Next: CCCC(=O)Nc1ccc2oc(-c3cccnc3)nc2c1
-1.1% (inactive)

Next: CCOC(=O)c1ccccc1NC(=O)c1ccc2c(=O)n3c(nc2c1)CCCCC3
15.6% (inactive)

Next: COc1ccc(NC(=O)COc2ccccc2)c(OC)c1
8.8% (inactive)

Next: Cc1ccc(CN2C(=O)CCC2C(=O)NCCCN2CCC(C)CC2)cc1 (stereo not drawn)
-7.4% (inactive)

Next: O=C(Nc1ccc(Br)c2cccnc12)c1ccc(Cn2cc(Cl)cn2)o1
9.8% (inactive)

Next: CC1(C)CC(=O)C(C#N)=C(NCCCO)C1
5% (inactive)

Next: CSCCC(NS(=O)(=O)c1ccc2c(c1)oc(=O)n2C)C(=O)NC1CCCCC1 (stereo not drawn)
-6% (inactive)

Next: Cc1ccc(NCC(O)C(O)C(O)CO)cc1C (stereo not drawn)
0.6% (inactive)

Next: CC(C)Cn1c(N)c(C(=O)NCCN2CCOCC2)c2nc3ccccc3nc21
-2.8% (inactive)

Next: Cc1oc(-c2ccccc2F)nc1CS(=O)(=O)CC(=O)N1CCN(Cc2ccccc2)CC1
-4% (inactive)

Next: O=C(c1cc2n(n1)C(C(F)(F)F)CC(c1ccc(Cl)cc1)N2)N1CCCC1 (stereo not drawn)
-5.8% (inactive)

Next: Cc1ccc(N2C(=O)c3ccccc3C2Nc2cccnc2)nc1 (stereo not drawn)
-7.7% (inactive)

Next: O=C(c1ccccc1)N1CCN(Cc2ccccc2Br)CC1
-2.5% (inactive)

Next: COc1ccc(C2c3c(oc4ccccc4c3=O)C(=O)N2Cc2ccncc2)cc1OC (stereo not drawn)
-2.6% (inactive)

Next: CC1CCc2nn(CC(=O)Nc3ccc(F)cc3F)cc2C1 (stereo not drawn)
-2.3% (inactive)

Next: CCOc1ccc(NC(=O)CC2NCCNC2=O)cc1 (stereo not drawn)
-10.9% (inactive)

Next: CCN(CC)S(=O)(=O)c1ccc(NC(=O)CN(c2cccc(F)c2)S(C)(=O)=O)cc1
1.1% (inactive)
